Assay: Human HepG2 cell viability assay in 384 well format
Type: toxicity, cell-based
Parameters: dose 125 nL, time 70.5 hour; concentration not given beside the values
Conditions: HepG2 cells, read-out: Inhibition
measured.endpoint: cytotoxicity at 70.5 h

COCCNC(=O)[C@H]1CC[C@@H]2[C@@H](CCN2c2ncc(F)cn2)O1; -1.33%

Respectfully, I request cytotoxicity at 70.5 h for each entry included below.
1. O=C(NCCc1csc(-c2cnccn2)n1)c1cnn[nH]1
2. Cc1nc2n(n1)CC(NCC(=O)NCCCOC(C)C)CC2 (stereo unspecified)
3. Cc1nn(C)c(C)c1C(C(=O)O)N1CC=C(c2ccccc2)CC1 (stereo unspecified)
4. c1ccc(-c2nc(CN3CCCC3Cn3cncn3)cs2)cc1 (stereo unspecified)
5. Fc1ccccc1CN1CCC[C@@H](Cn2nnc(-c3cccs3)n2)C1

1. 21.3%
2. -0.276%
3. 10.9%
4. 14.3%
5. -3.35%

Attribution: ChEMBL document CHEMBL3507680
